Molecular target: T1, Spirochaeta thermophila YeeE (Spirochaeta thermophila, UniProt G0GAP6 1-328)
T1 construct: YeeE of Spirochaeta thermophila, residues 1-328, UniProt G0GAP6; Membrane protein, kept in 0.1% DDM; The His tag was removed with TEV(S219V) protease; also called StYeeE; TsuA; source: E. coli C41(DE3), purified from the membrane fraction in DDM (Ni-NTA, TEV cleavage, Superdex 200)
T1 sequence (looked up): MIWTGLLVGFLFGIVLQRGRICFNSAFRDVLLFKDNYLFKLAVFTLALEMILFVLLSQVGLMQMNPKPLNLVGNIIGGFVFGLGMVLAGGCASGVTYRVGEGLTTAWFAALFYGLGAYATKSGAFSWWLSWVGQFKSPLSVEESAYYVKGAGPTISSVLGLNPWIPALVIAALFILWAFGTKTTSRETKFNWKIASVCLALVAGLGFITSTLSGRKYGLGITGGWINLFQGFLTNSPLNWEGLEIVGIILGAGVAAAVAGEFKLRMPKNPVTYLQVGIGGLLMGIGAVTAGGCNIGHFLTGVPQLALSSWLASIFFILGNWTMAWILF
Assay: BLI; StYeeD-His6 (4.82 μM) loaded on a Ni-NTA biosensor, 11.05 μM StYeeE in solution; Octet N1, room temperature; 20 mM Tris-HCl pH 8.0, 300 mM NaCl, 0.1% DDM, 1 mM β-ME; 120 s association, 120 s dissociation; local fitting; 3 measurements. WT was also run with 300 mM Na2SO4 (binding similar) or 300 mM Na2S2O3 (binding significantly decreased)
Details: both partners purified
Known kon of a selection of binders

[
  {
    "binder": "StYeeD(E15A), His6-tagged (natural protein, Spirochaeta thermophila, UniProt G0GAP7 1-80, looked up, YeeD of Spirochaeta thermophila, residues 1-80, UniProt G0GAP7, with E15A; source: E. coli C41(DE3), purified (Ni-NTA, Superdex 200)) MANYQVSKEIDVRGAVCPIPDVEAKRAVQSANDGEIILVRIDYPLSKERIPETVKKLGSEVLEIEEAAPGEWNIYIKVKK",
    "units_of_measure": "M⁻¹ s⁻¹",
    "kon": 7500
  },
  {
    "binder": "StYeeD(R49A), His6-tagged (natural protein, Spirochaeta thermophila, UniProt G0GAP7 1-80, looked up, YeeD of Spirochaeta thermophila, residues 1-80, UniProt G0GAP7, with R49A; source: E. coli C41(DE3), purified (Ni-NTA, Superdex 200)) MANYQVSKEIDVRGEVCPIPDVEAKRAVQSANDGEIILVRIDYPLSKEAIPETVKKLGSEVLEIEEAAPGEWNIYIKVKK",
    "units_of_measure": "M⁻¹ s⁻¹",
    "kon": 9000
  },
  {
    "binder": "StYeeD(L38A), His6-tagged (natural protein, Spirochaeta thermophila, UniProt G0GAP7 1-80, looked up, YeeD of Spirochaeta thermophila, residues 1-80, UniProt G0GAP7, with L38A; source: E. coli C41(DE3), purified (Ni-NTA, Superdex 200)) MANYQVSKEIDVRGEVCPIPDVEAKRAVQSANDGEIIAVRIDYPLSKERIPETVKKLGSEVLEIEEAAPGEWNIYIKVKK",
    "units_of_measure": "M⁻¹ s⁻¹",
    "kon": 18000
  }
]
